System: P. falciparum HB3 strain
Assay: SYBR Green growth assay, asexual blood stages, HB3 strain
Assay type: cell-based, Plasmodium falciparum
Conditions: Plasmodium falciparum, HB3, 72 h
REPORTED_ENDPOINT: IC50 (nM)
Form entry: value (nM) — number only.

Record for CCN(CC)CCCC(C)Nc1ccnc2cc(Cl)ccc12 (stereo not shown) [Chloroquine, reference compound] under target or system P. falciparum HB3 strain: IC50 reported as 6

====

Experiment: Mitochondrial toxicity, HepG2 cells cultured in glucose or galactose (resazurin)
Format: cell-based
Settings: human, HepG2 cells adapted to galactose, HepG2 in galactose, 3.125–50 μM, read-out: cell viability
REPORTED_ENDPOINT: viability at 24 h

For CCCCCCCCCCCc1cc(=O)c2ccccc2[nH]1 [compound 1, 2-Undecilquinolin-4(1H)-one] the compound record lists viability at 24 h as < 0.5%
